# binding signal values compiled below
Target: T1, UNK ZnF1-3 (human, UniProt Q9C0B0 31-174)
T1 sequence: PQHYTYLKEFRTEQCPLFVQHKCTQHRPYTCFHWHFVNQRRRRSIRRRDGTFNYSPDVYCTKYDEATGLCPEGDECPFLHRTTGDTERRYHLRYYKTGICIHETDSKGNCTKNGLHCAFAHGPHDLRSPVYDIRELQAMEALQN
Experiment: nsRBNS (natural sequence RNA bind-n-seq); RBNS binding buffer (assumed for nsRBNS): 25 mM Tris pH 7.5, 150 mM KCl, 3 mM MgCl2, 0.01% Triton X-100, 500 ug/ml BSA, 20 U/ml SUPERase-In, 4 C; UNK is unkempt and MSI1 is Musashi-1; names of the RNAs are library labels; protein concentration not given here; high values mean tight binding
Over roughly 24,000 sequences, “enrichment r” has its median near 0.99; the highest 2% begin near 3.7. The full list was thinned out, with the highest values kept by preference.
Kindly write the number and append the unit.

Consider the reported binding signal for these binders:
{"columns": ["BINDER", "binding signal"],
 "data": [
  ["chr14:67424093:67424094:-_ENSMUSG00000022048_ENSMUST00000022629|mus_hu|motif|central (ssRNA) RNA: GGGAGUUCUACAGUCCGACGAUCGAGAGACGGGGUGUGGGGCCCCAAGGGGGACCCCAUGAACUGGCUGCUCCACAGUAACGGUCACAGGCUCUUAAAAAAAAAAACAAAAAAAAAAAAAGGAAGGAAGAAAGAAGUCUCAGACAACAGAGGAUUGAGCAUCA", "7.78 enrichment R"],
  ["chr15:76909541:76909542:-_ENSMUSG00000033565_ENSMUST00000166610|perfect_dup|motif|central (ssRNA) RNA: GGGAGUUCUACAGUCCGACGAUCCAACAUGAUCAAUAAUUUAUACACAUGGAGAGUAAUACAAAAAAUAAUGAAUAAAAGCGGAAGAUCUAACUACUCAACCUUCACAAUUCCAGCUACUUGAUAAUAGGAGUAACCCAAUGACAACAGAGGAUUGAGCAUCA", "8.91 enrichment R"],
  ["chrX:71549400:71549401:+_ENSMUSG00000019087_ENSMUST00000019231|mus_hu|mus_mus_mus_hu_False|28_68 (ssRNA) RNA: GGGAGUUCUACAGUCCGACGAUCGCAGUAGGAAGAGGGAAGCUCUUCAGUCCAGUGCGCUGCAGGGAGAAACAUGAACAACACGGACACCGUCCCACCCUCAACCCUCUCAGGUGUACAGGGUCACACAAUCUGGGUCAAAGACAACAGAGGAUUGAGCAUCA", "1.64 enrichment R"],
  ["chr3:150289932:150289933:+_ENSG00000144895_ENST00000460851|hu_hu|hu_hu_hu_mus_False|28_58 (ssRNA) RNA: GGGAGUUCUACAGUCCGACGAUCCUUGUAGUUUUUAACAUCCCAUACUUCCAUUUGUCCUCGAAGAUUUCCAAAUCCAGCUAAUACUAAUAUAUGUCCAUGAGGGCUAUAGUAGGCUGCGUUGCGAGGACCAGUCCCAAAGUCCAACAGAGGAUUGAGCAUCA", "1.1 enrichment R"]
]}

Name the recorded binding signal for chr7:143080189:143080190:+_ENSG00000159840_ENST00000392910|hu_hu|FALSE|FALSE (ssRNA) RNA: GGGAGUUCUACAGUCCGACGAUCUGGGGCUCCAGGACUGAACUUGGAAGCCACAGGAGUAAACUUAGGAGUCACUGGAGAAAACUUAGGGGCUGGAGCCGGAGAUGAGGCUGGGGGCCCUCGGGGCUGGGUGUUAGCCAAAGACAACAGAGGAUUGAGCAUCA . 1.45 enrichment R

Return reported binding signal; argument: chr15:76909541:76909542:-_ENSMUSG00000033565_ENSMUST00000166610|perfect_dup|FALSE|FALSE (ssRNA) RNA: GGGAGUUCUACAGUCCGACGAUCCAACAUGAUCAAUAAUUUAUACACAUGGAGAGUAAUACAAAAAAUAAUGAAUAAAAGCUAAAGAUCUAACUACUCAACCUUCACAAUUCCAGCUACUUGAUAAUAGGAGUAACCCAAUGACAACAGAGGAUUGAGCAUCA 6.42 enrichment R

Looking for the measured binding signal of chr18:2804189:2804190:+_ENSG00000101596_ENST00000320876|hu_hu|FALSE|FALSE (ssRNA) RNA: GGGAGUUCUACAGUCCGACGAUCCAAUGCCUUGGAUUUAAAACAUGACUCCUUCUUGAUACAAUGAAUUAUAAAAGCAAACUAGUUCCACAUAUUAAUUAUACGUUCAAGUCUAGUUCCUAAAAAGUCAUUUCUCUUUAACCUCAACAGAGGAUUGAGCAUCA , can you help? 1.05 enrichment R
